Experimental target: human FAAH (Fatty Acid Amide Hydrolase) (Homo sapiens)
Construct: The full length FAAH was subcloned into the mammalian expression vector, pcDEF.neo, using XbaI and EcoRI restriction sites; expressed in transfected cells
Sequence (O00519 whole entry): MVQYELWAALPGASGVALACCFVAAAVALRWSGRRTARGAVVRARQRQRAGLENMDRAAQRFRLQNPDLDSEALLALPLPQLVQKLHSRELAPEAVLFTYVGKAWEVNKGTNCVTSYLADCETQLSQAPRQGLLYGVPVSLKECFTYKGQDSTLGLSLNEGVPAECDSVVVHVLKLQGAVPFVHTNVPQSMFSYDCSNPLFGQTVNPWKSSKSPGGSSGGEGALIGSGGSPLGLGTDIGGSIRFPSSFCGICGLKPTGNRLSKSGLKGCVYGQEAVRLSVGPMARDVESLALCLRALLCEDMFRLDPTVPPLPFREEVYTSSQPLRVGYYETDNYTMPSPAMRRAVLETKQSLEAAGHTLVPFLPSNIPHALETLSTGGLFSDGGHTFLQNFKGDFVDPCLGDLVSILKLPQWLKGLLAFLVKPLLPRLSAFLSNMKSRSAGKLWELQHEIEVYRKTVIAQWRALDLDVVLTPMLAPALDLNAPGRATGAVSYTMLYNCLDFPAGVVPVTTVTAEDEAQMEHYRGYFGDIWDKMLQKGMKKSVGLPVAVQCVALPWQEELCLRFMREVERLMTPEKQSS
Experimental details: FAAH enzyme assay on CHO cell lysate expressing human FAAH (human LY), AAMCA fluorescent substrate
Assay type: biochemical
Assay conditions: human FAAH_CHO cell lysate
Excerpt: To assist in assay development stable cell lines for human, murine and rat full length FAAH were developed. Human FAAH cDNA (Accession No: NM_001441.1) was purchased from Origene (Rockville, Md.). The full length FAAH was subcloned into the mammalian expression vector, pcDEF.neo, using XbaI and EcoRI restriction sites and used for stable cell line generation. CHO cells expressing FAAH were used to prepare either crude cell lysate or microsome fractions. […]
Below, each entry is listed with its recorded pIC50.
Quick note: pIC50 means taking -log10 of the concentration in moles per liter.

Task: Which pIC50 value belongs to CC(C)Oc1ccc(-c2[nH]c3ncccc3c2Sc2ccc(Cl)cc2)cc1 ?
Output: 7.93

Task: And then COc1ccc(Cc2[nH]c3ncccc3c2Sc2ccc(Cl)cc2)cc1 , what is it?
Output: 7.28

Task: And then NC(=O)CCn1cccc2c(Sc3ccc(Cl)cc3)c(-c3ccc4c(c3)OCO4)nc1-2 , what is it?
Output: 6.50

====

Experimental target: human FAAH (Fatty Acid Amide Hydrolase) (Homo sapiens)
Construct: The full length FAAH was subcloned into the mammalian expression vector, pcDEF.neo, using XbaI and EcoRI restriction sites; expressed in transfected cells
Experimental details: FAAH whole cell assay on CHO cells expressing human FAAH (human WC), AAMCA fluorescent substrate
Type: cell-based
Assay conditions: human FAAH_CHO whole cell
From the text: To assist in assay development stable cell lines for human, murine and rat full length FAAH were developed. Human FAAH cDNA (Accession No: NM_001441.1) was purchased from Origene (Rockville, Md.). The full length FAAH was subcloned into the mammalian expression vector, pcDEF.neo, using XbaI and EcoRI restriction sites and used for stable cell line generation. […]
Measure name: IC50
Please append the unit to your numeric answer.

Task: Which IC50 value belongs to O[C@H]1CC[C@H](c2[nH]c3ncccc3c2Sc2ccc(Cl)cn2)CC1 ?
Output: 32.7 nM

Task: And then NS(=O)(=O)c1ccc(-c2[nH]c3ncccc3c2Sc2ccc(Cl)cn2)cc1 , what is it?
Output: 21.8 nM

Task: And then CC(C)(O)c1ccc(-c2[nH]c3ncccc3c2Sc2ccc(Cl)cc2)cc1 , what is it?
Output: 42 nM

Task: And then CC1(C)CCC(NC(=O)c2[nH]c3ncccc3c2Sc2ccc(Cl)cc2)CC1 , what is it?
Output: 773 nM

Task: And then Cn1c(-c2ccc(C(O)C(F)(F)F)cc2)c(Sc2ccc(Cl)cc2)c2cccnc21 (stereo not drawn) , what is it?
Output: 186 nM

Task: And then FC(F)Oc1ccc(-c2[nH]c3ncccc3c2Sc2ccc(Cl)cc2)cc1 , what is it?
Output: 15.7 nM

Task: And then COC(=O)c1ccc(-c2[nH]c3ncccc3c2Sc2ccc(Cl)cc2)cc1 , what is it?
Output: 18.3 nM

Task: And then COc1ccc(NC(=O)c2[nH]c3ncccc3c2Sc2ccc(Cl)cc2)cn1 , what is it?
Output: 272 nM

Task: And then N#Cc1ccccc1-c1[nH]c2ncccc2c1Sc1ccc(Cl)cc1 , what is it?
Output: 69.4 nM
